# System: B/Washington/02/2019
# assay-protocol: CPE inhibition assay
# Format: cell-based
# cond: Influenza B virus, MDCK; read-out: EC50 ± SD B/Washington/02/2019
observed-property: EC50
State the value, then name its unit.

Query CCOC(=O)C1=C[C@@H](OC(CC)CC)[C@H](NC(C)=O)[C@@H](N)C1 [Oseltamivir, Oseltamivir phosphate] yields EC50 of 8.53 µM

---

# assay-protocol: in vitro
# cond: human
observed-property: CC50 (µM)
State just the number; it will be interpreted in µM.

- chemical-smiles: "COc1ccc(Br)cc1CNC12CC3CC(CC(C3)C1)C2"
  unit-annotation: "µM"
  value-measured: 83.8

// below: CC50 requested for another compound
Query `COc1ccc(Br)cc1CNC12CC3CC(C)(CC(C)(C3)C1)C2` yields CC50 of 47.4

Value source: paper PMC8999625
